Biological target: orexin-1 (Homo sapiens (Human))
Assay: Intracellular calcium measurement (FLIPR), CHO cells expressing human orexin-1 receptor, 3 nM orexin-A
Assay type: cell-based
Details: CHO cells expressing human orexin-1 receptor, FLIPR, 3 nM orexin-A; geometric mean if determined several times; read-out: IC50 OX1
recorded-endpoint: IC50 (µM)
Hi! Could you send only the number? It should be in µM, unit omitted.

# returns recorded IC50 (system: orexin-1 (Homo sapiens (Human))) for Cc1ccc(-n2nccn2)c(C(=O)N2CCC[C@H]2c2nc(-c3ccccc3)no2)c1
0.373

COc1c(F)cccc1-c1noc([C@@H]2CCCN2C(=O)c2cc(F)cc(C)c2-n2nccn2)n1 ?
1.81

Cc1c(Cl)cccc1-c1noc([C@@H]2CCCN2C(=O)c2ccccc2-n2nccn2)n1 ?
0.399

Cc1ccc(-n2cccn2)c(C(=O)N2CCC[C@H]2c2nc(-c3ccccc3OC(F)(F)F)no2)n1 ?
0.238

----------
Target: orexin-1 (Homo sapiens (Human))
Assay: Intracellular calcium measurement (FLIPR), CHO cells expressing human orexin-1 receptor, 3 nM orexin-A
Format: cell-based
Settings: CHO cells expressing human orexin-1 receptor, FLIPR, 3 nM orexin-A; geometric mean if determined several times; read-out: IC50 OX1
recorded-endpoint: pIC50
Kindly note that pIC50 refers to -log10 of the concentration in mol/L and answer with the value alone.

Requested read-out: pIC50. Entry: CCOc1ncccc1-c1noc([C@@H]2CCCN2C(=O)c2ccc(C(F)(F)F)cc2-n2nccn2)n1 [compound 222]
6.45

Cc1cc(C)c(-n2nccn2)c(C(=O)N2CCC[C@H]2c2nc(-c3ccccc3OC(F)(F)F)no2)c1 [compound 170] ?
7.26

COc1cc(C(=O)N2CCC[C@H]2c2nnc(-c3cccc(Cl)c3OC)[nH]2)c(-n2nccn2)cc1C [compound 490] ?
6.92

CCCOc1ccccc1-c1noc([C@@H]2CCCN2C(=O)c2cc(C)ccc2-n2nccn2)n1 [compound 45] ?
6.95

Cc1ccc(-n2nccn2)c(C(=O)N2CCC[C@H]2c2nc(-c3cccc(F)c3)no2)c1 [compound 14] ?
6.41

----------
What IC50 was measured for each of the following?
Target: orexin-1 (Homo sapiens (Human))
Assay: Intracellular calcium measurement (FLIPR), CHO cells expressing human orexin-1 receptor, 3 nM orexin-A
Type: cell-based
Conditions: CHO cells expressing human orexin-1 receptor, FLIPR, 3 nM orexin-A; geometric mean if determined several times; read-out: IC50 OX1
Hi! Could you send only the number? It should be in nM, unit omitted.

# returns recorded IC50 (system: orexin-1 (Homo sapiens (Human))) for Cc1c(F)cccc1-c1nc([C@@H]2CCCN2C(=O)c2cc(Cl)ccc2-n2nccn2)no1 [compound 342]
152

Cc1ccc(-n2nccn2)c(C(=O)N2CCC[C@H]2c2nnc(-c3ccccc3OC(F)(F)F)[nH]2)c1 [compound 465] ?
76

Cc1ccc(-n2nccn2)c(C(=O)N2CCC[C@H]2c2noc(-c3cc(C)ccc3C)n2)c1 [compound 390] ?
73

CCOc1ncccc1-c1noc([C@@H]2CCCN2C(=O)c2cc(OC)c(C)cc2-c2ncccn2)n1 [compound 287] ?
73

----------
Target: orexin-1 (Homo sapiens (Human))
Test: Intracellular calcium measurement (FLIPR), CHO cells expressing human orexin-1 receptor, 3 nM orexin-A
Assay type: cell-based
Details: CHO cells expressing human orexin-1 receptor, FLIPR, 3 nM orexin-A; geometric mean if determined several times; read-out: IC50 OX1
Experimental: In Vitro Assay: Intracellular Calcium Measurements: […] Within the Fluorescent Imaging Plate Reader (FLIPR Tetra, Molecular Devices), antagonists are added to the plate in a volume of 10 μL/well, incubated for 120 min and finally 10 μL/well of agonist is added. Fluorescence is measured for each well at 1 second intervals, and the height of each fluorescence peak is compared to the height of the fluorescence peak induced by 3 nM orexin-A with vehicle in place of antagonist. […]
What IC50 was measured for each of the following?
Hi! Could you send only the number? It should be in µM, unit omitted.

Requested read-out: IC50. Entry: COc1c(Cl)cccc1-c1nnc([C@@H]2CCCN2C(=O)c2cc(C)c(C)cc2-n2nccn2)[nH]1
0.027

CCOc1ncccc1-c1nc([C@@H]2CCCN2C(=O)c2ccc(C)cc2-n2nccn2)no1 ?
0.033

CCOc1ncccc1-c1noc([C@@H]2CCCN2C(=O)c2cc(C)ccc2-n2nccn2)n1 ?
0.022

O=C(c1[nH]cnc1-c1ccccc1)N1CCC[C@H]1c1nc(-c2ccccc2OC(F)(F)F)no1 ?
0.781

COc1cc(C(=O)N2CCC[C@H]2c2noc(-c3cc(C)ccc3C)n2)c(-n2nccn2)cc1C ?
0.033

COc1ccc(F)c(-c2noc([C@@H]3CCCN3C(=O)c3cc(C)ccc3-n3nccn3)n2)c1F ?
1.84

Cc1noc(-c2ccccc2C(=O)N2CCC[C@H]2c2nc(-c3ccccc3OC(F)(F)F)no2)n1 ?
0.274

CCc1ccccc1-c1noc([C@@H]2CCCN2C(=O)c2cc(C)ccc2-n2nccn2)n1 ?
0.019

----------
What log10 IC50 was measured for each of the following?
Biological target: orexin-1 (Homo sapiens (Human), UniProt O43613)
Sequence (O43613 whole entry): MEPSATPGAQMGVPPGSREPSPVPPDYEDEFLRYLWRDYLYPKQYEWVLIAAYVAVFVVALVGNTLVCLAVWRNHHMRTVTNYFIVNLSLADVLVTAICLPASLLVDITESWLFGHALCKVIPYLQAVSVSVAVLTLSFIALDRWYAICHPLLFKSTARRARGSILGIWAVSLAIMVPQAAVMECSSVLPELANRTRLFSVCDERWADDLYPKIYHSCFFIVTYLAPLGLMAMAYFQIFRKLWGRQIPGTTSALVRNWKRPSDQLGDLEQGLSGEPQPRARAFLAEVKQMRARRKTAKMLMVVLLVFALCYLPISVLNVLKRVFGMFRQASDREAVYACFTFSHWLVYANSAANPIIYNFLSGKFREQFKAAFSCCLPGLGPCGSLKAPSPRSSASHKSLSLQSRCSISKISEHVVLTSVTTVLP
Experiment: Intracellular calcium measurement (FLIPR), CHO cells expressing human orexin-1 receptor, 3 nM orexin-A
Type: cell-based
Details: CHO cells expressing human orexin-1 receptor, FLIPR, 3 nM orexin-A; geometric mean if determined several times; read-out: IC50 OX1
Form field - Quantity: IC50; Unit: nM; Scale: log10

Requested read-out: log10 IC50. Entry: Cc1c(F)cccc1-c1nc([C@@H]2CCCN2C(=O)c2ccc(Cl)cc2-n2nccn2)no1 [compound 379]
1.72

Cc1cccc(-c2sc(C)nc2C(=O)N2CCC[C@H]2c2nc(-c3cccc(Cl)c3C)no2)c1 [compound 126] ?
2.34

Cc1ccc(-n2nccn2)c(C(=O)N2CCC[C@H]2c2nc(-c3cn(C)c4ccccc34)no2)c1 [compound 57] ?
0.85

COc1c(Cl)cccc1-c1nc([C@@H]2CCCN2C(=O)c2cc(C)c(C)cc2-n2nccn2)no1 [compound 360] ?
0.85

CCc1ncccc1-c1noc([C@@H]2CCCN2C(=O)c2cc(C)ccc2-n2nccn2)n1 [compound 53] ?
2.50

CCOc1ncccc1-c1noc([C@@H]2CCCN2C(=O)c2ccccc2-n2nccn2)n1 [compound 218] ?
2.52

Cc1ccc(-n2nccn2)c(C(=O)N2CCC[C@H]2c2nc(-c3ccnc(C)c3)no2)c1 [compound 68] ?
3.82

----------
Biological target: orexin-1 (Homo sapiens (Human))
Experiment: Intracellular calcium measurement (FLIPR), CHO cells expressing human orexin-1 receptor, 3 nM orexin-A
Format: cell-based
Conditions: CHO cells expressing human orexin-1 receptor, FLIPR, 3 nM orexin-A; geometric mean if determined several times; read-out: IC50 OX1
recorded-endpoint: log10 of IC50 (log10 of the value in nM)
Form field - Quantity: IC50; Unit: nM; Scale: log10

Requested read-out: log10 of IC50. Entry: Cc1ccc(-n2cccn2)c(C(=O)N2CCC[C@H]2c2nc(-c3cccc(Cl)c3C)no2)c1
1.99

COc1cc(C(=O)N2CCC[C@H]2c2noc(-c3cc(C)ccc3OC)n2)c(-n2nccn2)cc1Cl ?
1.56

Cc1ccc(-n2nccn2)c(C(=O)N2CCC[C@H]2c2cc(-c3cccc(Cl)c3C)on2)c1 ?
1.28

Cc1ccc(-n2nccn2)c(C(=O)N2CCC[C@H]2c2nc(-c3ccccc3OC(F)F)no2)c1 ?
1.79

O=C(c1cc(Cl)ccc1-n1nccn1)N1CCC[C@H]1c1nc(-c2ccccc2Cl)no1 ?
3.27

----------
Molecular target: UniProt:O43613
Assay: Intracellular calcium measurement (FLIPR), CHO cells expressing human orexin-1 receptor, 3 nM orexin-A
Assay type: cell-based
Settings: CHO cells expressing human orexin-1 receptor, FLIPR, 3 nM orexin-A; geometric mean if determined several times; read-out: IC50 OX1
Method: In Vitro Assay: Intracellular Calcium Measurements: […] Within the Fluorescent Imaging Plate Reader (FLIPR Tetra, Molecular Devices), antagonists are added to the plate in a volume of 10 μL/well, incubated for 120 min and finally 10 μL/well of agonist is added. Fluorescence is measured for each well at 1 second intervals, and the height of each fluorescence peak is compared to the height of the fluorescence peak induced by 3 nM orexin-A with vehicle in place of antagonist. […]
What pIC50 was measured for each of the following?
Kindly note that pIC50 refers to -log10 of the concentration in mol/L and answer with the value alone.

Requested read-out: pIC50. Entry: COc1ccc(-n2nccn2)c(C(=O)N2CCC[C@H]2c2nc(-c3ccccc3Cl)no2)c1 [compound 240]
5.88

CCOc1ncccc1-c1noc([C@@H]2CCCN2C(=O)c2cc(Cl)c(C)cc2-n2nccn2)n1 [compound 301] ?
7.72

Cc1onc(-c2ccccc2Cl)c1C(=O)N1CCC[C@H]1c1nc(-c2cccc(Cl)c2C)no1 [Ref 7] ?
6.28

COc1c(F)cccc1-c1nnc([C@@H]2CCCN2C(=O)c2ccc(Cl)cc2-n2nccn2)[nH]1 [compound 476] ?
7.57

Cc1ccc(-n2nccn2)c(C(=O)N2CCC[C@H]2c2nc(-c3cccc4c3ccn4C)no2)c1 [compound 74] ?
6.60

CCOc1c(F)cccc1-c1noc([C@@H]2CCCN2C(=O)c2cc(Cl)c(C)cc2-n2nccn2)n1 [compound 300] ?
7.85

Cc1ccc(-n2nccn2)c(C(=O)N2CCC[C@H]2c2nc(-c3cccc(C)c3Cl)no2)c1 [compound 27] ?
6.90
